Biological target: T. urticae AChE (TuAChE) (Tetranychus cinnabarinus, UniProt M9T420)
Construct: gene ace1; methods also mention mite extracts
Experiment: modified Ellman assay, […] nm
Assay type: biochemical
Details: read-out: IC50(mM) / TuAChE
Attribute Measured: IC50 (mM)
Only the number, expressed in mM, is required.

Data request: Quick check: IC50 on T. urticae AChE (TuAChE) (Tetranychus cinnabarinus, UniProt M9T420), item O=C(c1ccc2occc2c1)N1CCC(OCc2ccccc2)CC1 [compound 8] ?
Data returned: 1.51

###

Biological target: T. urticae AChE (TuAChE) (Tetranychus cinnabarinus)
Construct: gene ace1; methods also mention mite extracts
Sequence (M9T420 1-687): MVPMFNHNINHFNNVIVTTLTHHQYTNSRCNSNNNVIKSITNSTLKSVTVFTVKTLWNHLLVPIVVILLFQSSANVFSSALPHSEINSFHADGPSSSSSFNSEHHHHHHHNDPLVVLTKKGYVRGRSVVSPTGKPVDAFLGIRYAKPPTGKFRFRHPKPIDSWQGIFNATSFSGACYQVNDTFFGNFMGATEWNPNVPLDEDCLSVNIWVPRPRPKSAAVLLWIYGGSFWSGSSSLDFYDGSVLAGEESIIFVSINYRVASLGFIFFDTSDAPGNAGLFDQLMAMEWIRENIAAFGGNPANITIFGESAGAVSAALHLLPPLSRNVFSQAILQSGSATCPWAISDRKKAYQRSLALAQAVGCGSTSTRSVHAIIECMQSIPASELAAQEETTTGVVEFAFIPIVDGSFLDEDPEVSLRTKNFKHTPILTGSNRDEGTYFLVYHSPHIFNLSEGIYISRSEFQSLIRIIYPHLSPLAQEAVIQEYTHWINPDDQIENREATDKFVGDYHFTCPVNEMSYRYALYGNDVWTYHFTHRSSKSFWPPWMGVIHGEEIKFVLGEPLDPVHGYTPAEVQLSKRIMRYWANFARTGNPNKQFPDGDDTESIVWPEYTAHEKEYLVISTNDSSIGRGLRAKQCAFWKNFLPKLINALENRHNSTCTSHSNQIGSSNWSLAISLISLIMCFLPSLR
Test: modified Ellman assay, […] nm
Format: biochemical
Attribute Measured: pIC50
Please note pIC50 is a logarithmic value: minus log10 of concentration in mol/L. Answer with that number alone.

Data request: Recorded pIC50 of CNC(=O)Oc1ccc2c(c1)[C@]1(C)CCN(C)[C@@H]1N2C , please.
Data returned: 2.42
